- Test system: NCI/ADR-RES ovarian
- EXPERIMENT SUMMARY: NCI-60 one-dose screen, 48 h
- PROTOCOL CONDITIONS: 10 µM unless noted
About 83,000 compounds went through this panel and 20% of them were active in at least one assay; those are over-represented in the sample as a whole. Activity calls are given as the source filed them. The calls were made as follows: active = growth percent below 10; inactive = the rest.
Possible outcomes: active, inactive

COMPOUND	ANSWER LABEL
O=C(NCCNc1cc(-c2cn(-c3ccccc3)nc2-c2cccc(O)c2)ccn1)Nc1ccc(Cl)c(C(F)(F)F)c1	inactive
Nc1nc(-c2cccc([N+](=O)[O-])c2)c(N=Nc2ccccc2Cl)s1	inactive
COc1cc(CNC(=O)Cc2ccccc2[N+](=O)[O-])ccc1OCC(=O)NO	inactive
CCC(CC)N1C(=O)/C(=c2\sc3n(c2=O)C2C(NN=3)N(CC)C(=O)N2CC)c2ccccc21 (configuration not stated)	inactive
Cc1cc(=O)n2nc(-c3cn(C)c4ccc(Cl)cc34)sc2n1	inactive
COCCC[C@H]1O[C@@](O)([C@H](C)[C@@H]2CC(OC)C(O)/C=C(C)/C=C(C)/C=C(\C)C(OC3O[C@@H](C)[C@H](O)C(O)[C@@H]3O)C(C)/C=C(C)/C=C(OC)/C=C(\C)C(=O)O2)C(OC)C(O)[C@]1(C)O[C@H]1C[C@@H](O)[C@H](O[C@H]2C[C@](C)(O)[C@H](O)C(C)O2)C(C)O1 (some centres not stated)	inactive
CS(=O)(=O)c1ccc2c(c1)c1c(n2C(=O)c2ccc(Cl)cc2)CCCC1	inactive
CS(=O)(=O)c1ccc2c(c1)c1c(n2Cc2ccc(Cl)cc2)CCCC1	inactive
COc1cc(C2CC(c3ccc(Nc4nc(NCCO)nc(Nc5ccc(Cl)cc5)n4)cc3)=Nc3c(N)nc(N)nc3N2)cc(OC)c1OC (configuration not stated)	inactive
Nc1nc(N)c2c(n1)NC(c1ccccc1)CC(c1ccc(Nc3nc(NCCO)nc(Nc4ccc(Cl)cc4)n3)cc1)=N2 (configuration not stated)	inactive
O=C(CCCCCCN1CC(=O)N2[C@@H](c3cccc(Br)c3)c3[nH]c4ccccc4c3C[C@H]2C1=O)NO	inactive
Nc1ccc(-c2nnc(SCc3ccc(O)c4ncccc34)o2)cc1	active
CCOC(=O)c1c(NC(=O)c2cccc(C(F)(F)F)c2)sc2c(CN3CCN(C)CC3)c(O)ccc12	active
Cc1ccc(/C=C/CC(=O)Nc2ccc(C(=O)Nc3ccc(F)cc3N)cc2)cn1	inactive
CCC(=O)Nc1cc(Nc2cc(NC3CC3)n3ncc(C#N)c3n2)ccc1C	inactive
C=CCn1c(SCC(=O)Nc2cccc(C(=O)/C=C/c3cc(OC)c(OC)c(OC)c3)c2)nc2ccccc2c1=O	inactive
O=C(COc1ccc(C2SCC(=O)N2c2ccc(F)cc2)cc1)c1ccccc1 (configuration not stated)	inactive
